target: JAK1 (Homo sapiens (Human)); assay: Enzyme assay (Assay Example^a 1), JAK1; assay type: biochemical; conditions: ATP 100 μM
Listing of entries alongside the reported IC50.
Number in µM, nothing else.

Solved entries (count: 5):
Compound | IC50 (µM)
N#Cc1ccc(CCN[C@H]2CC[C@H](c3nnn4cnc5[nH]ccc5c34)CC2)cc1 [391b] | 0.018
c1cc2c(ncn3cnc(C4CCCCC4)c23)[nH]1 | 0.014
O=C(CC(F)(F)F)N(CC(F)(F)F)C[C@H]1CC[C@H](c2nnn3cnc4[nH]ccc4c23)CC1 | 0.0043
FC(F)(Br)CN[C@H]1CC[C@H](c2nnn3cnc4[nH]ccc4c23)CC1 [382b] | 0.00031
Cc1ccc(CNC(=O)[C@H]2CC[C@H](c3nnn4cnc5[nH]ccc5c34)CC2)o1 | 0.0059

State its IC50: O[C@H]1CC[C@H](NC[C@H]2CC[C@H](c3nnn4cnc5[nH]ccc5c34)CC2)CC1
0.046

Tell me measured IC50 for CC(C)(C)OC(=O)N1CC(CC#N)(NC[C@H]2CC[C@H](c3nnn4cnc5[nH]ccc5c34)CC2)C1 please.
0.19

Determine its reported IC50: CC(C)(O)c1cn(C[C@H]2CC[C@H](c3nnn4cnc5[nH]ccc5c34)CC2)nn1
0.0074

---

target: JAK3 (Homo sapiens (Human), UniProt P52333); test: JAK3 enzyme assay (Assay Example^b 1); details: IC50 (μM) JAK3, ATP 100 μM
Sequence (P52333 whole entry): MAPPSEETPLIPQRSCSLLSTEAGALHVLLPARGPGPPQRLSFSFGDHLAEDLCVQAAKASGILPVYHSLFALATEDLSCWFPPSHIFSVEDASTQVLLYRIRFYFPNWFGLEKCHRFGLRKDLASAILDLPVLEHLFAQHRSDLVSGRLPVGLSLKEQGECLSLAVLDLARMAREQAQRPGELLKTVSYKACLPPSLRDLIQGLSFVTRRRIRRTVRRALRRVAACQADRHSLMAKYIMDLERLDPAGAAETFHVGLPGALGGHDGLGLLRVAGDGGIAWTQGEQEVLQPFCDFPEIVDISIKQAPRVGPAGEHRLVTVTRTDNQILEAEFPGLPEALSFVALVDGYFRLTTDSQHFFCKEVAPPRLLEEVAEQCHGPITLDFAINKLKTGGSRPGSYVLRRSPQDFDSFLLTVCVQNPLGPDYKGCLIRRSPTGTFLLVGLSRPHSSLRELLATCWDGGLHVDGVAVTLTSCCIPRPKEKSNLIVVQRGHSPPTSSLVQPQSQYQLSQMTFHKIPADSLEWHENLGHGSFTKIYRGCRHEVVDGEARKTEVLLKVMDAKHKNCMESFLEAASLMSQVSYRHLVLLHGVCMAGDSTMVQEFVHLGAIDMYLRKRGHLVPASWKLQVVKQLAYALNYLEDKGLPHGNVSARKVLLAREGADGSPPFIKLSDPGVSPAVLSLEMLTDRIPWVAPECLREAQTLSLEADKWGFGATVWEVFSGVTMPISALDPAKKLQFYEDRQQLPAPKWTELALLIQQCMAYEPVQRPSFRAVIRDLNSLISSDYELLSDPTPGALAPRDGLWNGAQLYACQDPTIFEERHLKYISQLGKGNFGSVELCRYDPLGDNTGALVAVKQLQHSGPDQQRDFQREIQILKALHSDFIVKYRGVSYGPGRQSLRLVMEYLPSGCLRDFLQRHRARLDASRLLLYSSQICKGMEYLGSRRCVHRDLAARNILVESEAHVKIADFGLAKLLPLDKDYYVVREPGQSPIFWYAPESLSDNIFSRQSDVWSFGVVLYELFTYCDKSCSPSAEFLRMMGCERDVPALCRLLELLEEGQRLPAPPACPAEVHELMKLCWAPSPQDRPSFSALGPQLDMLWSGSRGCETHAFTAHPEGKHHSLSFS
Reported IC50 is given for each of the following compounds.

Compound | IC50
CN(C)CCn1c(=O)c2cnc3[nH]ccc3c2n(C2CCCCC2)c1=O | > 1 µM

Supply IC50 value. Item: N#CCn1c(=O)c2cnc3[nH]ccc3c2n(C2CCCCC2)c1=O [Synthetic Example^b 137]
0.91 µM

Answer with the recorded IC50 for the compound listed here: O=c1[nH]c(=O)n(C2CCN(CCN3CCOCC3)CC2)c2c1cnc1[nH]ccc12
> 1 µM

Let me know recorded IC50 for CN(CC(F)(F)F)C[C@H]1CC[C@H](n2c(=O)[nH]c(=O)c3cnc4[nH]ccc4c32)CC1 [Synthetic Example^b 136] , thanks.
0.75 µM

---

biological target: UniProt:P23458; assay: Enzyme assay (Assay Example^a 1), JAK1; type: biochemical; conditions: ATP 100 μM
# note: boundary value 0.007 µM maps to Criterion not met; IC50 below it maps to Criterion met

Study these solved cases before continuing.
Compound | Study Target | Cat
O=C(C[C@H]1CC[C@@H](c2nnn3cnc4[nH]ccc4c23)CC1)NCC(F)(F)F [442a] | UniProt:P23458 | Criterion not met
N#CCC(=O)NC[C@H]1CC[C@H](c2nnn3cnc4[nH]ccc4c23)CC1 | UniProt:P23458 | Criterion met
CC(C#N)[C@H]1CC[C@H](c2nnn3cnc4[nH]ccc4c23)CC1 (some centres unmarked) [439b] | UniProt:P23458 | Criterion met

Does this compound meet the criterion IC50 < 0.007 µM? CC(C)(C)NC[C@H]1CC[C@H](c2nnn3cnc4[nH]ccc4c23)CC1
Criterion not met

---

target: Tyk2 (Homo sapiens (Human)); assay: Enzyme assay (Assay Example^a 1), Tyk2; assay type: biochemical; conditions: ATP 100 μM; Table^a 154
Sequence (P29597 whole entry): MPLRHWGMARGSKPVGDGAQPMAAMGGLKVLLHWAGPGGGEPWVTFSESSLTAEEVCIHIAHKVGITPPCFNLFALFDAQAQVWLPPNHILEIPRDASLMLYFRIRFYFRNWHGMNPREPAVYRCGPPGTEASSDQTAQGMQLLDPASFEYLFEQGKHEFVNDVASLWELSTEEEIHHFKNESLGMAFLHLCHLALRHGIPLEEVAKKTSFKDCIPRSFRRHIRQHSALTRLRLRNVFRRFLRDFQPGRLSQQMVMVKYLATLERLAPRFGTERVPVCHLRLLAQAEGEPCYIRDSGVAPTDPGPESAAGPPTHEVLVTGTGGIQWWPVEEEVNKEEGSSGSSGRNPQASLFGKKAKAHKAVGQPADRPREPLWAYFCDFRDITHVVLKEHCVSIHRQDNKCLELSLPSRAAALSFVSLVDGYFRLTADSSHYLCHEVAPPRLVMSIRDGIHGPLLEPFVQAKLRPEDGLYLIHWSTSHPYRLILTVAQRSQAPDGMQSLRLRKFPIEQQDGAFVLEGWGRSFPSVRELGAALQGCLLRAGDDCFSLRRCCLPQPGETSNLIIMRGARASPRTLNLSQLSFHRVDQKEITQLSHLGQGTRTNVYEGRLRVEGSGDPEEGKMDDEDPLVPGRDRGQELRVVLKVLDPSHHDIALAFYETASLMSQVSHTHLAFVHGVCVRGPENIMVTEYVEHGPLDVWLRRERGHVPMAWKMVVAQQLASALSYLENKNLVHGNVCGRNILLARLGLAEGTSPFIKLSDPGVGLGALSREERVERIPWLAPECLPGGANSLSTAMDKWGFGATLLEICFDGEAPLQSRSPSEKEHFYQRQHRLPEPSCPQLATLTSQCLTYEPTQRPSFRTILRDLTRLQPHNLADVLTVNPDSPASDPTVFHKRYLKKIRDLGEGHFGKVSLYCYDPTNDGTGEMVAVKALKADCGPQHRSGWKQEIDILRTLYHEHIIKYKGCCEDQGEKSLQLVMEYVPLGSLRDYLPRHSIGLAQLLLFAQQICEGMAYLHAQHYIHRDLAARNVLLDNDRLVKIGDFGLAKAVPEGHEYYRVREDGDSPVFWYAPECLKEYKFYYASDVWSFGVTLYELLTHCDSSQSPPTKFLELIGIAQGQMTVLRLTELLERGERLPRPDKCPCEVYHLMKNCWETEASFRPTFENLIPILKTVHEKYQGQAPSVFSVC
# IC50 listing for each entry below
Provide the reading as a plain figure in µM.

Would you please look over these solved cases?
Compound | IC50 [µM]
CC(NC[C@H]1CC[C@H](c2nnn3cnc4[nH]ccc4c23)CC1)c1ccc(F)c(F)c1 (mixture of isomers) | 0.072
Fc1ccc(CN[C@H]2CC[C@H](c3nnn4cnc5[nH]ccc5c34)CC2)cc1 [195b] | 0.12
OC(CN[C@H]1CC[C@H](c2nnn3cnc4[nH]ccc4c23)CC1)(c1ccc(Cl)cc1)C(F)(F)F (mixture of isomers) [199b] | 0.44

Alright, here's another compound for you.
Item O=C1NCCN1CCNC[C@H]1CC[C@H](c2nnn3cnc4[nH]ccc4c23)CC1 : provide IC50
0.18

All values here come from patent US9216999B2.
